Target: EGFR L858R mutant (Homo sapiens (Human), UniProt P00533, L858R)
Sequence (P00533 25-1210 L858R): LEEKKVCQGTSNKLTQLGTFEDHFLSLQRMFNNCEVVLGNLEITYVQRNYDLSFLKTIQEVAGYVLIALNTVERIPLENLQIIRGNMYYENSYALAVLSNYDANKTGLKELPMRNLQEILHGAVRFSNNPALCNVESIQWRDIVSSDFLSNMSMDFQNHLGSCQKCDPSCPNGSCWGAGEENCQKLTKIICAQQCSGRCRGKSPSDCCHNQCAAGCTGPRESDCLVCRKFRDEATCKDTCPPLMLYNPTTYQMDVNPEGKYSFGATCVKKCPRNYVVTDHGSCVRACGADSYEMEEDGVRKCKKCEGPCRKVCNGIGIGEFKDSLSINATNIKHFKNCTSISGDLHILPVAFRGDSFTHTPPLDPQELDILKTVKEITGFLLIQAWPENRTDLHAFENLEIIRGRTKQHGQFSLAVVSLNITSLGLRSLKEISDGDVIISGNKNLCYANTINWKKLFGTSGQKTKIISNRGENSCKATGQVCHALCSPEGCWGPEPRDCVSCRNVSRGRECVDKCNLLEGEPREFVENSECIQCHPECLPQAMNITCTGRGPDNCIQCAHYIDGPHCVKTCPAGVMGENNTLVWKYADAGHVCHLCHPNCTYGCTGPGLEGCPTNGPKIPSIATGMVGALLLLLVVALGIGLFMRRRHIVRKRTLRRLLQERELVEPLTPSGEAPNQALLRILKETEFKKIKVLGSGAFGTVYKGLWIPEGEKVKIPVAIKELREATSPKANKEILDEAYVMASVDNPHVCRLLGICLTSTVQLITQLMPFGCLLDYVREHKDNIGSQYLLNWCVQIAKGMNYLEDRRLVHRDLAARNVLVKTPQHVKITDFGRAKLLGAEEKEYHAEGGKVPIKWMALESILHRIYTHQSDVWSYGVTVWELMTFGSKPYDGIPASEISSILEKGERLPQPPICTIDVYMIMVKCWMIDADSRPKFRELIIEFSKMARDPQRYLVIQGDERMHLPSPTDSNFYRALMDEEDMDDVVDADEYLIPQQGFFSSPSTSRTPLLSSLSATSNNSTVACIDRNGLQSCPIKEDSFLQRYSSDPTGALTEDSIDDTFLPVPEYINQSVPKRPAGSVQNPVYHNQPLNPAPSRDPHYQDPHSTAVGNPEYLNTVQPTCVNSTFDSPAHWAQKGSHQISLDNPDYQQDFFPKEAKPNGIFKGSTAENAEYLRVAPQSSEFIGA
Test: HotSpot radiometric kinase assay, EGFR L858R mutant
Conditions: 10 μM ATP
Protocol: Biochemical Assays for Inhibition of Wild-Type and Mutant EGFRs Briefly, specific kinase/substrate pairs along with required cofactors were prepared in reaction buffer; 20 mM Hepes pH 7.5, 10 mM […], 1 mM EGTA, 0.02% Brij35, 0.02 mg/ml BSA, 0.1 mM Na3VO4, 2 mM DTT, 1% DMSO. Compounds were delivered into the reaction, followed […] later by addition of a mixture of ATP (Sigma, St. Louis MO) and ^33P ATP (Perkin Elmer, Waltham MA) to a final concentration of 10 μM. […]
quantity.kind: IC50 (nM)

Solved entries:
Cc1nn(C)c2c1/C=C/c1n[nH]c3ccc(cc13)-c1cnn(C)c1O[C@@H](C)CN(C)C2 [Example 120]	7.91
CCc1nn(CCO)c2c1/C=C/c1n[nH]c3ccc(cc13)-c1cnn(C)c1O[C@@H](C)CN(C)C2 [Example 129]	0.47
Cc1nn(C)c2c1/C=C/c1n[nH]c3ccc(cc13)-c1cnn(C)c1O[C@@H]1CCN(C2)C1 [Example 167]	35.7
CCc1nn(CCN2CC[C@H](O)C2)c2c1/C=C/c1n[nH]c3ccc(cc13)-c1cnn(C)c1OCCCO2 [Example 69]	121

a. Cc1nn(C)c2c1/C=C/c1n[nH]c3ccc(cc13)-c1cnn(C)c1O[C@@H]1CCCN(C2)C1 [Example 122]
b. Cc1nn(C)c2c1-c1ccc3[nH]nc(c3c1)/C=C/c1c(OC(C)C)nn(CCO)c1CN(C(C)C)C[C@@H](C)O2 [Example 202]
Would you let me know which has the greater IC50 value, a or b ? Your choice should be expressed through its label. b
(b: 98.8 nM, a: 11.9 nM)

These measurements were taken from patent US20250353864A1.
